In this section, each of the compounds is paired with its reported GI50.
System: TK-10
Assay: NCI tumour cell line growth inhibition, 48 h
Calls of active or inactive are those of the source. Cut-off read from the data, not from the text of the source: active = GI50 up to about 1.1 µM and inactive = higher.

The reported TK-10 GI50 of O=C1[C@@H]2C(c3ccccc3F)=NO[C@@H]2C(=O)N1c1ccc(Cc2ccc(N3C(=O)[C@H]4C(c5ccccc5F)=NO[C@H]4C3=O)cc2)cc1 is > 31.6 µM (inactive)

GI50 for TK-10 with input COc1ccc(NC(=O)C2=C(SC)C(=O)N=C2N)cc1 equals > 100 µM (inactive)

GI50 for TK-10 with input OC1=CN=C(c2ccccc2)Oc2ccccc21 equals > 100 µM (inactive)

Bench note, TK-10: Cc1c2c(Cl)c3c(c(Cl)c2c(C)c2c(Cl)c4c(c(Cl)c12)C(c1ccccc1)(c1ccccc1)C4(c1ccccc1)c1ccccc1)C(c1ccccc1)(c1ccccc1)C3(c1ccccc1)c1ccccc1 , GI50 reads > 100 µM (inactive)

====

System: NCI-H23
Assay: NCI tumour cell line growth inhibition, 48 h
Active and inactive are the calls of the source. No stated cut-off is given here; in the data, active = GI50 up to about 1.1 µM and inactive = higher.
Reported values of GI50 for individual entries

Examples with answers:
compound: CCCCCC(=O)Cc1cc(OC)cc2c1C(=O)Oc1cc(O)c(C(=O)O)c(CC(=O)CCCCC)c1O2
GI50: 19.2 µM (inactive)
--
compound: Cc1ccc(-c2n[nH]c(=O)n2/N=C\c2ccc([N+](=O)[O-])cc2)cc1
GI50: > 100 µM (inactive)
--
compound: O=C1c2cc3c(cc2CC1Cc1ccc2c(c1)CCC2)CCC3 (stereo unspecified)
GI50: 44.7 µM (inactive)
--
compound: Cc1ccc(S(=O)(=O)Nc2nc3ccccc3c(=O)n2C2CCCCC2)cc1
GI50: > 100 µM (inactive)
--
compound: CC(C)=CCN=C(N)N
GI50: > 100 µM (inactive)

Field: next compound
Assay NCI-H23, sample Cc1ccc(-c2cc[n+]3c(n2)oc2ccccc23)cc1 , GI50 read: 39.9 µM (inactive)

====

Recorded measurements of GI50, one per entry
System: DU-145
Test: NCI tumour cell line growth inhibition, 48 h
Active and inactive are the calls of the source. No stated cut-off is given here; in the data, active = GI50 up to about 1.1 µM and inactive = higher.

The cases that follow already have their GI50 on record.
compound: CC(=O)OCC1OC(Nc2ccc3nc(C)n(-c4cccc(C)c4)c(=O)c3c2)C(OC(C)=O)C(OC(C)=O)C1OC(C)=O (stereo not drawn)
GI50: > 62.5 µM (inactive)

compound: COCCn1cnc2c(Cl)nc(Nc3ccccc3)nc21
GI50: > 100 µM (inactive)

compound: CC(=O)c1c2c(cc3c1CC1(C3)Cc3ccc4c(c3C1=O)CCC4)CCC2 (stereo not drawn)
GI50: 99.3 µM (inactive)

compound: COc1ccc(NCc2cc(OC)c(OC)c(OC)c2)cc1
GI50: 0.857 µM (active)

compound: CC1(C)C[C@H]2[C@H](O)C(CO)=C3C(=O)[C@@H](O)[C@]3(C)[C@H]2C1
GI50: > 100 µM (inactive)

The recorded GI50 for entry COc1cc([N+](=O)[O-])ccc1N1C(=O)C2c3[nH]c4ccccc4c3C3CCC(C(C)(C)C)CC3C2C1=O (stereo not drawn) equals > 100 µM (inactive)

Just so you know, measured GI50 for NC(=O)c1cccc(OCC(O)CO)c1 (stereo not drawn) came out at > 100 µM (inactive)

====

Tested on: MDA-MB-435
Assay: NCI tumour cell line growth inhibition, 48 h
Activity calls are given as the source filed them. Rule as the data show it: active = GI50 up to about 1.1 µM and inactive = higher.
measurementType: GI50

GI50 measured on Cc1ccc(O)c(-c2cscn2)c1 = 52.6 µM (inactive)
